molecular target: UniProt:P54219; assay: Substrate uptake and inhibition of the chromaffin granule amine transporter (VAT1, VMAT1, SLC18A1) as assessed by uptake of a fluorescent substrate (FFN206) in HEK-293 JumpIN-SLC18A1 cells (PubChem AID: 1794818)
Sequence (P54219 whole entry): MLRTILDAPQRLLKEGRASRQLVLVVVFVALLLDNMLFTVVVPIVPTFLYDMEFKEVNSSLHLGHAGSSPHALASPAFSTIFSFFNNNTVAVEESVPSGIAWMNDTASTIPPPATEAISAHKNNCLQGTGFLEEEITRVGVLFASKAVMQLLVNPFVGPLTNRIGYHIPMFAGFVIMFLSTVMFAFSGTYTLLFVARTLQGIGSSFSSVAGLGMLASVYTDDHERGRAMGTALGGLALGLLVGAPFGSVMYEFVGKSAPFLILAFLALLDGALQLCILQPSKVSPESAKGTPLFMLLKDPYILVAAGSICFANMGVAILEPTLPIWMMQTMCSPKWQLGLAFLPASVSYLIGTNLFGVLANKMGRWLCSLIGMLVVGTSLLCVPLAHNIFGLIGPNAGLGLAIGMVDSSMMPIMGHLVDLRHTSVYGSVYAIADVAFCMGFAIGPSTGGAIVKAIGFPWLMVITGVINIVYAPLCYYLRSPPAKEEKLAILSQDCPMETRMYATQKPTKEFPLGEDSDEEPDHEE
measurement_type: EC50 (nM)
Record the value in nM, omitting the unit from your answer.

INPUT: Which EC50 is listed for CNc1ccc2c(CCN)cc(=O)oc2c1 ?
OUTPUT: 2000
